Entry source: patent US8999664B2

- protocol_details: Carotenoid content in fish flesh of rainbow trout by HPLC
- Format: in vivo, Oncorhynchus mykiss
- applied_conditions: Fermented product division, rainbow trout fish flesh, 3 months
Items are presented alongside their recorded Ratio to astaxanthin.

{"structure_smiles": "CC1=C(/C=C/C(C)=C/C=C/C(C)=C/C=C/C=C(C)/C=C/C=C(C)/C=C/C2=C(C)C(=O)[C@@H](O)CC2(C)C)C(C)(C)C[C@H](O)C1=O", "Ratio to astaxanthin [%]": 100}
{"structure_smiles": "CC1=C(/C=C/C(C)=C/C=C/C(C)=C/C=C/C=C(C)/C=C/C=C(C)/C=C/C2=C(C)C(=O)CCC2(C)C)C(C)(C)CCC1=O", "Ratio to astaxanthin [%]": 11.8}
{"structure_smiles": "CC1=C(/C=C/C(C)=C/C=C/C(C)=C/C=C/C=C(C)/C=C/C=C(C)/C=C/C2=C(C)C(=O)[C@@H](O)CC2(C)C)C(C)(C)C[C@H](O)C1", "Ratio to astaxanthin [%]": 2.9}
